Catalogue of inhibition at 25 min, 2.2 µM values
- TEST_SYSTEM: CYP3A4 (Homo sapiens, UniProt P08684)
- Construct: human liver microsomes (BD Gentest, 450 μL; final concentration: 0.4 mg/mL); tissue BD Gentest; host or cells: human liver microsomes
- Sequence (P08684 whole entry): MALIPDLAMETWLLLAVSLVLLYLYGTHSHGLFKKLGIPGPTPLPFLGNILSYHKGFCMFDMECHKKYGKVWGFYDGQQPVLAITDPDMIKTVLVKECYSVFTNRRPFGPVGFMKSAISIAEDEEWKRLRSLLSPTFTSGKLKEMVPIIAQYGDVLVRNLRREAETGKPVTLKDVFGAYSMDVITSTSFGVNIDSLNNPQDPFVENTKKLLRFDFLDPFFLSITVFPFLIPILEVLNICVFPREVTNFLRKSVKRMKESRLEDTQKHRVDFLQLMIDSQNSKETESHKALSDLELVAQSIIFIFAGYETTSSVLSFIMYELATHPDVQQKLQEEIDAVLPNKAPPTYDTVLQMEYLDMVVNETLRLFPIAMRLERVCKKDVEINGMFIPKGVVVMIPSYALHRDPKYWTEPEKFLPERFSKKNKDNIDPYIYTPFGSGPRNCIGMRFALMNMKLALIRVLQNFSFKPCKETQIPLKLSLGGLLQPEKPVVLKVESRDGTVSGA
- ASSAY_COMMENT: CYP3A4 inhibition assay
- Assay type: in vitro ADME
- COND: pH 7.4, probe 7-benzyloxyquiniline (BZQ), 50 μM final, human liver microsomes, substrate BZQ, read-out: CYP3A4 % inh @ 2.2 μM
Numeric only. Scale: %

| COMPOUND | ENDPOINT_RESULT |
| --- | --- |
| CC1(C)C[C@@H](NC(=O)Nc2cccc3cnccc23)c2ccccc2O1 | 65 |

So, "Cc1cc2c(NC(=O)N[C@@H]3C[C@](C)(CF)Oc4c(F)cccc43)cccc2cn1" ? Its inhibition at 25 min, 2.2 µM was 11

So, "Cc1cc2c(NC(=O)N[C@@H]3CC(CF)(CF)Oc4cc(F)ccc43)cccc2cn1" ? Its inhibition at 25 min, 2.2 µM was 0

So, "Cc1cc2c(NC(=O)N[C@@H]3CC(C)(C)Oc4cc(Cl)ccc43)cccc2cn1" ? Its inhibition at 25 min, 2.2 µM was 0

So, "Cc1cc2c(NC(=O)N[C@@H]3CC(C)(C)Oc4cc(F)ccc43)c(F)ccc2cn1" ? Its inhibition at 25 min, 2.2 µM was 49

So, Cc1cc2c(NC(=O)N[C@@H]3C[C@@](C)(C(F)F)Oc4cc(Cl)ccc43)cccc2cn1 (single isomer, unassigned) ? Its inhibition at 25 min, 2.2 µM was 21

So, Cc1cc2c(NC(=O)N[C@@H]3C[C@@](C)(CF)Oc4cc(Cl)ccc43)cccc2cn1 (single isomer, unassigned) ? Its inhibition at 25 min, 2.2 µM was 20

====

- TEST_SYSTEM: CYP2C9 (Homo sapiens, UniProt P11712)
- Construct: human liver microsomes (BD Gentest); tissue BD Gentest; host or cells: human liver microsomes
- Sequence (P11712 whole entry): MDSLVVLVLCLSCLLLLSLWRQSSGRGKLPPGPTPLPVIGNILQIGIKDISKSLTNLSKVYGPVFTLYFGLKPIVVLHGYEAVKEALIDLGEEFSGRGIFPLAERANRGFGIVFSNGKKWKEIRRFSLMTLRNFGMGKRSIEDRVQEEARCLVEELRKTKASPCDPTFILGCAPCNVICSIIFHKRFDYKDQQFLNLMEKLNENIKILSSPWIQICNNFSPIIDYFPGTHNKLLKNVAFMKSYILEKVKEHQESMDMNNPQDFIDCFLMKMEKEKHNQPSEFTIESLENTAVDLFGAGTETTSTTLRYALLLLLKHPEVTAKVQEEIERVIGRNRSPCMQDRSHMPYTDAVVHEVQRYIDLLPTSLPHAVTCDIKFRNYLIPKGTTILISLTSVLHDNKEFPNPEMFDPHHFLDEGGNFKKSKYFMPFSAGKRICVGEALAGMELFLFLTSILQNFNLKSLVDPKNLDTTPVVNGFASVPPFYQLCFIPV
- ASSAY_COMMENT: CYP2C9 inhibition assay
- Type: in vitro ADME
- COND: pH 7.4, probe Luciferin-H (100 μM final), human liver microsomes, substrate Luciferin-H, read-out: CYP2C9 % inh @ 2.2 μM
Threshold check on inhibition at 25 min, 2.2 µM: at or above 9% gives rule met, strictly below gives rule not met.

Here are 5 compounds together with their reported answers.
| COMPOUND | LABEL |
| --- | --- |
| Cc1cc2c(NC(=O)N[C@@H]3CC(CF)(CF)Oc4cc(Br)ccc43)cccc2cn1 [Example 102] | rule met |
| CCCC1(CCC)C[C@@H](NC(=O)Nc2cccc3cnc(C)cc23)c2cccc(F)c2O1 [Example 68] | rule met |
| Cc1cc2c(NC(=O)N[C@@H]3CC(CF)(CF)Oc4c(OC(F)(F)F)cccc43)cccc2cn1 [Example 87] | rule met |
| Cc1cc2c(NC(=O)N[C@@H]3CC(C)(C)Oc4c(F)cccc43)cccc2cn1 [Example 119] | rule not met |
| Cc1cc2c(NC(=O)N[C@@H]3C[C@](C)(CF)Oc4c(F)cccc43)cccc2cn1 [Example 126] | rule not met |

input: Hi team, for Cc1cc2c(NC(=O)N[C@@H]3CC(C)(C)Oc4c3ccc(F)c4Cl)cccc2cn1 [Example 110] , is the recorded inhibition at 25 min, 2.2 µM at or above 9%?
output: rule met

input: Hi team, for CCC1(CC)C[C@@H](NC(=O)Nc2cccc3cnc(C)cc23)c2ccc(Cl)cc2O1 [Example 69] , is the recorded inhibition at 25 min, 2.2 µM at or above 9%?
output: rule not met
